Target: MAT2A recombinant protein (Homo sapiens, UniProt P31153)
Sequence (P31153 whole entry): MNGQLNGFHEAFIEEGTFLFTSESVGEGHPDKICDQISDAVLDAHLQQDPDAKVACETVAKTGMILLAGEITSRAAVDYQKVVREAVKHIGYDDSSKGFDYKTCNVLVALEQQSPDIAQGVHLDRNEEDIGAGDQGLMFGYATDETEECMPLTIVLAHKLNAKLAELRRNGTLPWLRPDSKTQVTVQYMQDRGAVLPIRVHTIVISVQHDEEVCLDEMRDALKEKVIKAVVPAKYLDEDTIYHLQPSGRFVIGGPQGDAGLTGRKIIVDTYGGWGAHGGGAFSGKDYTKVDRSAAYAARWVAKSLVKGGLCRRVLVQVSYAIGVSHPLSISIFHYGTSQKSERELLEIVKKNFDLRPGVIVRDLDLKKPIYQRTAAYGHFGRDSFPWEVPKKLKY
Experiment: MAT2A inhibitory activity (malachite green colorimetric enzyme assay)
Type: biochemical
Conditions: read-out: MAT2A Inhibition
Task for the reader: assign each of the following compounds its reported pIC50.
Just so you know, pIC50 here is -log10 of the concentration in molar units; reply with that number alone.

Q. Can you look up pIC50 on MAT2A recombinant protein (Homo sapiens, UniProt P31153) for CCn1cc2c(n1)c(=O)n(-c1cccnc1)c1nc(C(F)(F)F)ccc21 [Compound B29] ?
A. 7.73

Q. Find the measured pIC50: item O=c1c2nn(C3CC3)cc2c2ccc(C(F)(F)F)nc2n1-c1cccc2[nH]ncc12 [Compound B250] , target or system MAT2A recombinant protein (Homo sapiens, UniProt P31153).
A. 7.55

Q. What value of pIC50 on MAT2A recombinant protein (Homo sapiens, UniProt P31153) does Cn1cc2c(n1)c(=O)n(Cc1cn[nH]c1)c1cc(Cl)ccc21 [Compound B235] have?
A. 6.17

Q. GET /values?readout=pIC50&system=MAT2A recombinant protein (Homo sapiens, UniProt P31153)&item= COc1ccc(Cn2cc3c(n2)c(=O)n(-c2cccc4[nH]ncc24)c2cc(Cl)c(C#N)cc32)cc1 [Compound B286]
A. 6.73

Q. GET /values?readout=pIC50&system=MAT2A recombinant protein (Homo sapiens, UniProt P31153)&item= O=c1c2nn(C(F)F)cc2c2ccc(C(F)(F)F)nc2n1-c1cccnc1 [Compound B255]
A. 7.71

Q. // map O=c1c2nn(C3CC3)cc2c2ccc(C(F)(F)F)nc2n1-c1cccnc1 [Compound B215] to recorded pIC50 (system: MAT2A recombinant protein (Homo sapiens, UniProt P31153))
A. 7.66

Q. Query for MAT2A recombinant protein (Homo sapiens, UniProt P31153): what pIC50 does the record show for Cn1cc2c(n1)c(=O)n(-c1cncc(F)c1)c1nc(C(F)(F)F)ccc21 [Compound B202] ?
A. 7.30

Q. Any idea what pIC50 came out for Cn1cc2c(n1)c(=O)n(-c1cccc(NS(C)(=O)=O)c1)c1nc(C(F)(F)F)ccc21 [Compound B214] on MAT2A recombinant protein (Homo sapiens, UniProt P31153)?
A. 7.83

----------
Test: Pharmacokinetic test in rats (IV and PO)
Type: in vivo
Settings: rat, plasma; SD rats, IV 1 mg/kg; read-out: T½ (converted)
Decision: half-life compared against 3 h; not below it gives label 1, below it gives label 0.

Q. Is the recorded value of half-life equal to or greater than 3 h for this compound? O=c1c2n[nH]cc2c2cc(F)c(Cl)cc2n1-c1cccnc1C1CC1
A. label 1

Q. Given Cn1cc2c(n1)c(=O)n(-c1cccnc1)c1cc(Cl)ccc21 , state whether its half-life is at least 3 h.
A. label 1

Q. Answer whether half-life of Cn1cc2c(n1)c(=O)n(-c1cccnc1C1CC1)c1cc(Cl)c(F)cc21 is greater than or equal to 3 h.
A. label 1

Q. Threshold query (half-life >= 3 h) on CCn1cc2c(n1)c(=O)n(-c1cccnc1)c1cc(Cl)ccc21
A. label 0

Q. In plain terms: is recorded half-life at least 3 h for COc1ccc(Cn2cc3c(n2)c(=O)n(-c2cccnc2)c2cc(Cl)ccc32)cc1 ?
A. label 0

Q. Check if half-life >= 3 h (inclusive). Item: Cn1cc2c(n1)c(=O)n(-c1cccc3[nH]ncc13)c1nc(C(F)(F)F)ccc21
A. label 1

Q. Item CCn1cc2c(n1)c(=O)n(-c1cccc(F)c1)c1cc(Cl)ccc21 with half-life of 3 h or above?
A. label 0

Q. Confirm if half-life reported for the compound Cn1cc2c(n1)c(=O)n(-c1cccc3[nH]ncc13)c1cc(Cl)c(F)cc21 is 3 h or above.
A. label 1

----------
Provide the recorded half-life at 1 μM for the entries that follow.
Test: Stability test in liver microsomes, human
Assay type: in vitro ADME, humans
Details: human liver microsomes 0.5 mg/mL, 1.0 μM substrate, up to 60 min; read-out: Metabolic half-life in human liver microsome ( T1/2, min)

Q. Would you kindly share the measured half-life at 1 μM for Cn1cc2c(n1)c(=O)n(-c1cccc(O)c1)c1nc(C(F)(F)F)ccc21 ?
A. > 145 min

Q. Please give the measured half-life at 1 μM for this molecule: Cn1cc2c(n1)c(=O)n(-c1cccnc1)c1cc(Cl)ccc21
A. > 145 min

Q. Record request: half-life at 1 μM value, item Cn1cc2c(n1)c(=O)n(-c1cccc3[nH]ncc13)c1nc(C(F)(F)F)ccc21
A. > 145 min

----------
Test system: HCT116-MTAP wild-type (+/+)-cell strain
Assay: Tumor cell proliferation inhibition assay (CellTiter-Glo), HCT116-MTAP wild-type (+/+)
Type: cell-based
Conditions: Homo sapiens, 120 h, HCT116-MTAP wild-type (+/+) cells, 5-day treatment, IC50 score, read-out: Tumor cell 5-day relative growth inhibition (HCT116-MTAP+/+) (nM), score
Procedure: After the HCT116-MTAP-knockout (−/−) cell strain, the HCT116-MTAP wild-type(+/+)-cell strain, the DOHH-2 cell strain, or the Hut-78 cell strain was treated with the test compound for 5 days, the ATP level was measured using a CellTiter-Glo kit of Promega to evaluate the inhibition of the test compound against the growth of the tumor cell strain. […]
recorded-endpoint: IC50

Q. Please look up its IC50: Cc1c2c(nn1C(F)F)c(=O)n(-c1cccc3[nH]ncc13)c1nc(C(F)(F)F)ccc21
A. 500 to 2000 nM

Q. Please look up its IC50: CCn1cc2c(n1)c(=O)n(-c1cccnc1)c1nc(C(F)(F)F)ccc21
A. < 500 nM

Q. Request the reported IC50 associated with Cn1cc2c(n1)c(=O)n(-c1cccnc1C(F)(F)F)c1cc(Cl)ccc21
A. ≥ 2000 nM

Q. What measured IC50 goes with O=c1c2nn(C(F)F)cc2c2ccc(Cl)cc2n1-c1cccnc1 ?
A. ≥ 2000 nM

Q. Sample Cc1ncccc1-n1c(=O)c2nn(CC3CC3)cc2c2ccc(C(F)(F)F)nc21 — what was its IC50?
A. 500 to 2000 nM

Q. Find the recorded IC50 belonging to Cn1cc2c(n1)c(=O)n(-c1ccc(F)c(O)c1)c1nc(C(F)(F)F)ccc21 and report it.
A. ≥ 2000 nM

Q. Which IC50 value belongs to O=c1c2nn(C(F)F)cc2c2ccc(C(F)(F)F)nc2n1-c1cccnc1 ?
A. ≥ 2000 nM

Q. Query (molecule): Cc1ncccc1-n1c(=O)c2nn(C3CC3)cc2c2ccc(C(F)(F)F)nc21 ; field requested: IC50
A. 500 to 2000 nM

Q. Reported IC50, molecule O=c1c2nn(C3CC3)cc2c2ccc(C(F)(F)F)nc2n1-c1cccnc1 : ____
A. ≥ 2000 nM

Q. Recorded IC50 of Cn1ccc(Cn2cc3c(n2)c(=O)n(-c2cccnc2)c2cc(Cl)ccc32)n1 , please.
A. 500 to 2000 nM

Q. Which IC50 value belongs to Cn1cc2c(n1)c(=O)n(-c1cccnc1C1CC1)c1cc(Cl)c(C#N)cc21 ?
A. ≥ 2000 nM

Q. # get_value(readout='IC50', item= Cn1cc2c(n1)c(=O)n(-c1cccnc1C1CC1)c1nc(C3CC3)c(F)cc21 )
A. ≥ 2000 nM

Q. Which value of IC50 has been reported for O=c1c2n[nH]cc2c2ccc(C(F)(F)F)nc2n1-c1cccnc1 in the records?
A. ≥ 2000 nM

Q. Can you look up the measured IC50 of Cn1cnc2c(=O)n(-c3cccc4[nH]ncc34)c3cc(Cl)c(C#N)cc3c21 for me?
A. ≥ 2000 nM

Q. Can you share its IC50? I mean this molecule: Cn1cc2c(n1)c(=O)n(-c1cccnc1C1CC1)c1cc(Cl)c(F)cc21
A. ≥ 2000 nM

Q. Entry under review: Cc1ncccc1-n1c(=O)c2nn(C)cc2c2ccc(Cl)cc21 . Reported IC50?
A. < 500 nM

Q. What value of IC50 has been reported for the following molecule? Cc1ncccc1-n1c(=O)c2nn(C3CC3)cc2c2ccc(Cl)cc21
A. 500 to 2000 nM

Q. Request the reported IC50 associated with NC(=O)CC1N=c2c(c3ccc(Cl)cc3n(-c3cccnc3)c2=O)=N1 (centres unmarked)
A. ≥ 2000 nM

Q. Please look up its IC50: Cn1cc2c(n1)c(=O)n(-c1cccc3[nH]ncc13)c1cc(Cl)c(C#N)cc21
A. ≥ 2000 nM

Q. Bench note: what IC50 did Cc1ncccc1-n1c(=O)c2n[nH]cc2c2ccc(C(F)(F)F)nc21 show?
A. < 500 nM

Q. What does the record list as IC50 for [2H]C([2H])([2H])n1cc2c(n1)c(=O)n(-c1cccc3[nH]ncc13)c1nc(C(F)(F)F)ccc21 ?
A. 500 to 2000 nM

Q. Please look up its IC50: Cn1cc2c(n1)c(=O)n(-c1cccnc1)c1nc(C(F)(F)F)ccc21
A. 500 to 2000 nM

Q. Consider the molecule Cn1cc2c(n1)c(=O)n(-c1cccnc1C(F)(F)F)c1nc(C(F)(F)F)ccc21 and give its measured IC50.
A. ≥ 2000 nM

Q. Given the entry Cn1cc2c(n1)c(=O)n(-c1ccc(OC(F)F)cc1)c1nc(C(F)(F)F)ccc21 , report its measured IC50.
A. ≥ 2000 nM

Q. Consider the molecule COc1ccc(Cn2cc3c(n2)c(=O)n(-c2cccnc2)c2cc(Cl)ccc32)cc1 and give its measured IC50.
A. < 500 nM

Q. Item Cc1cncc(-n2c(=O)c3nn(C)cc3c3ccc(C(F)(F)F)nc32)c1 has what recorded IC50?
A. ≥ 2000 nM
